Biological target: Cannabinoid receptor 1 (Homo sapiens, UniProt P21554)
Sequence (P21554 whole entry): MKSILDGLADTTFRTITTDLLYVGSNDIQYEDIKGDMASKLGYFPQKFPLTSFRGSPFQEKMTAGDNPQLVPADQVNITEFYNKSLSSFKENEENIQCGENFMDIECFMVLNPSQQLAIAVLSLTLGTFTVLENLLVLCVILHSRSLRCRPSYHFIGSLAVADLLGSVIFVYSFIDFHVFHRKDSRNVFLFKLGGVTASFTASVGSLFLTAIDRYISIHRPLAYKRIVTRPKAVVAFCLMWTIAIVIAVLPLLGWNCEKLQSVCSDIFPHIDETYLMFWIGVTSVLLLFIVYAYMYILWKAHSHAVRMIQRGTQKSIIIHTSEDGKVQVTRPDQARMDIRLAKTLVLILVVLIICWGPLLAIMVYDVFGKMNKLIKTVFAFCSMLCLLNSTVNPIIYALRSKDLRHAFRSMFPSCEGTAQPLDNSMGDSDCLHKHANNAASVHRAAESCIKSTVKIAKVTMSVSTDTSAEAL
Test: biochemical
Assay type: cell-based, CHO-K1
observable: Ki (nM)
Write the number in nM without appending the unit.

// recorded Ki for `CCOC(=O)N1CCC(NC(=O)c2nn(-c3ccc(Cl)cc3Cl)c(-c3ccc(Cl)cc3)c2C)CC1` : 9.2

// recorded Ki for `CCCNC(=O)N1CCC[C@H](NC(=O)c2nn(-c3ccc(Cl)cc3Cl)c(-c3ccc(Cl)cc3)c2C)C1` : 271

----------
Biological target: Cannabinoid receptor 1 (Homo sapiens, UniProt P21554)
Test: biochemical
Assay type: cell-based, CHO-K1
observable: Ki

Reference set, count: 3
Cc1c(C(=O)NC2CCN(C(=O)NC(C)C)CC2)nn(-c2ccc(Cl)cc2Cl)c1-c1ccc(Cl)cc1	0.086 µM
CC(=O)N1CCC(NC(=O)c2nn(-c3ccc(Cl)cc3Cl)c(-c3ccc(Cl)cc3)c2C)CC1	0.0653 µM
Cc1c(C(=O)N[C@H]2CCCN(S(C)(=O)=O)C2)nn(-c2ccc(Cl)cc2Cl)c1-c1ccc(Cl)cc1	0.0779 µM

We now examine a further compound.
// recorded Ki for `Cc1c(C(=O)N[C@@H]2CCCN(C(=O)NC(C)C)C2)nn(-c2ccc(Cl)cc2Cl)c1-c1ccc(Cl)cc1` : 0.097 µM
